Target: D(2) dopamine receptor (Homo sapiens, UniProt P14416)
Sequence (P14416 whole entry): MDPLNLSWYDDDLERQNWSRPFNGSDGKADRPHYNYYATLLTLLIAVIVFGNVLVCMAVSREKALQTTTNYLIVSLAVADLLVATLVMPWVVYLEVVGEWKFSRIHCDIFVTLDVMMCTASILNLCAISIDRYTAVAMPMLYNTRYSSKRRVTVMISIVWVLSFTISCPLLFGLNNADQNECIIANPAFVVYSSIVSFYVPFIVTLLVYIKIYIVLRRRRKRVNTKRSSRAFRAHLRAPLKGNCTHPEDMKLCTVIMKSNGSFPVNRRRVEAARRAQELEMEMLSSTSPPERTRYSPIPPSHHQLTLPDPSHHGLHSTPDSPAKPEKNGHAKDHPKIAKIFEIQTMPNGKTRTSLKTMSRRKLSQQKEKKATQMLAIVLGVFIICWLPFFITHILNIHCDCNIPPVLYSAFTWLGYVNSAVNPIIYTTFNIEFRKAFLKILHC
Assay: Displacement of [3H]spiperone from human dopamine D2S receptor transfected in CHO cells after 1 hr by scintillation counting analysis
Type: cell-based

[
  {
    "smilesText": "C#CC1=CC[C@@H](N(CCC)CCCCNC(=O)c2ccc(OCCCc3cn(CCCC)nn3)c(OC)c2)CO1",
    "testSystem": "D(2) dopamine receptor (Homo sapiens, UniProt P14416)",
    "unitString": "nM",
    "Ki": 2.9
  },
  {
    "smilesText": "CCCCn1cc(CCCOc2ccc(C(=O)NCCCCN(CCC)[C@@H]3CCc4c(O)cccc4C3)cc2OC)nn1",
    "testSystem": "D(2) dopamine receptor (Homo sapiens, UniProt P14416)",
    "unitString": "nM",
    "Ki": 30
  },
  {
    "smilesText": "C#CC1=CC[C@H](N(CCC)CCCCNC(=O)c2ccc(OCCCc3cn(CCCC)nn3)c(OC)c2)CO1",
    "testSystem": "D(2) dopamine receptor (Homo sapiens, UniProt P14416)",
    "unitString": "nM",
    "Ki": 10
  },
  {
    "smilesText": "CCCCn1cc(CCCOc2ccc(C(=O)NCCCCN(CCC)[C@H]3CCc4c(O)cccc4C3)cc2OC)nn1",
    "testSystem": "D(2) dopamine receptor (Homo sapiens, UniProt P14416)",
    "unitString": "nM",
    "Ki": 0.54
  },
  {
    "smilesText": "CCCCn1cc(CCCOc2ccc(C(=O)NCCCCN(CCC)CCc3ccc(O)c4[nH]c(=O)ccc34)cc2OC)nn1",
    "testSystem": "D(2) dopamine receptor (Homo sapiens, UniProt P14416)",
    "unitString": "nM",
    "Ki": 53
  }
]
